Hey, just so you know, these numbers are from patent US20220267352A1.

System: pS6K1 T389 and pAkt S473 in PC3 cells
protocol: Western blot based pS6K1 and pAKT assay at 24 and 48 hour timepoints
Type: cell-based

compound	mTORC1 selective @ 24 hrs
CO[C@@H]1C[C@H](C[C@@H](C)[C@@H]2CC(=O)[C@H](C)/C=C(\C)[C@@H](O)[C@@H](OC)C(=O)[C@H](C)C[C@H](C)/C=C/C=C/C=C(\C)[C@@H](OCCOC3COC3)C[C@@H]3CC[C@@H](C)[C@@](O)(O3)C(=O)C(=O)N3CCCC[C@H]3C(=O)O2)CC[C@H]1OCCCN1CCOCC1 [I-14]	Yes
CO[C@@H]1/C(C)=C/[C@@H](C)C(=O)C[C@@H]([C@H](C)C[C@@H]2CC[C@@H](O)[C@H](OC)C2)OC(=O)[C@@H]2CCCCN2C(=O)C(=O)[C@]2(O)O[C@@H](CC[C@H]2C)C[C@H](OCC2COCCO2)/C(C)=C/C=C/C=C/[C@@H](C)C[C@@H](C)C(=O)[C@@H]1OC (stereo partly drawn) [I-27]	Yes
COCCOCCO[C@H]1C[C@@H]2CC[C@@H](C)[C@@](O)(O2)C(=O)C(=O)N2CCCC[C@H]2C(=O)O[C@H]([C@H](C)C[C@@H]2CC[C@@H](OC(F)F)[C@H](OC)C2)CC(=O)[C@H](C)/C=C(\C)[C@@H](O)[C@@H](OC)C(=O)[C@H](C)C[C@H](C)/C=C/C=C/C=C/1C [I-4]	Yes

###

System: p-p70 S6 Kinase (Thr389) in MCF-7 cells
protocol: AlphaLISA Ultra pS6K1 assay
Format: cell-based
applied.conditions: Homo sapiens, 1.5 h; MCF7 cells, 90 min
Procedure: Example 55: AlphaLISA Ultra pS6K1 Assay Assay Protocol: • 1. Seed MCF-7 cells in Corning 3701 plate and incubate for 20˜24 hour. 12,000˜16,000 cells will be seeded in 36 μL medium per well. • 2. Change the culture medium with fresh medium and incubate for another 2 hours. • 3. Add 12 μL (4×) compounds into the cell plate by HAMILTON. Final DMSO concentration is 0.5%. Incubate for 90 minutes. • 4. Aspirate 38 μL by HAMILTON, 10 μL rest per well. • 5. […] Count the plate by EnSpire Multimode Plate Reader

compound	IC50
CO[C@@H]1C[C@H](C[C@@H](C)[C@@H]2CC(=O)[C@H](C)/C=C(\C)[C@@H](O)[C@@H](OC)C(=O)[C@H](C)C[C@H](C)/C=C/C=C/C=C(\C)C(OCC3COCCO3)C[C@@H]3CC[C@@H](C)[C@@](O)(O3)C(=O)C(=O)N3CCCC[C@H]3C(=O)O2)CC[C@H]1OC(=O)N(C)CCN1CCOCC1 (stereo partly shown)	1 to 10 nM
CO[C@@H]1C[C@H](C[C@@H](C)[C@@H]2CC(=O)[C@H](C)/C=C(\C)[C@@H](O)[C@@H](OC)C(=O)[C@H](C)C[C@H](C)/C=C/C=C/C=C(\C)[C@@H](OCC3COCCO3)C[C@@H]3CC[C@@H](C)[C@@](O)(O3)C(=O)C(=O)N3CCCC[C@H]3C(=O)O2)CC[C@H]1OCCCO (stereo partly shown)	1 to 10 nM
COCCO[C@@H]1CC[C@@H](C[C@@H](C)[C@@H]2CC(=O)[C@H](C)/C=C(\C)[C@@H](OC)[C@@H](OC)C(=O)[C@H](C)C[C@H](C)/C=C/C=C/C=C(\C)C(OCCOC3COC3)C[C@@H]3CC[C@@H](C)[C@@](O)(O3)C(=O)C(=O)N3CCCC[C@H]3C(=O)O2)C[C@H]1OC (stereo partly shown)	10 to 100 nM
COCCO[C@@H]1CC[C@@H](C[C@@H](C)[C@@H]2CC(=O)[C@H](C)/C=C(\C)[C@@H](O)[C@@H](OC)C(=O)[C@H](C)C[C@H](C)/C=C/C=C/C=C(\C)C(OCc3cnccn3)C[C@@H]3CC[C@@H](C)[C@@](O)(O3)C(=O)C(=O)N3CCCC[C@H]3C(=O)O2)C[C@H]1OC (stereo partly shown)	< 1 nM
COCCO[C@@H]1CC[C@@H](C[C@@H](C)[C@@H]2CC(=O)[C@H](C)/C=C(\C)[C@@H](O)[C@@H](OC)C(=O)[C@H](C)C[C@H](C)/C=C/C=C/C=C(\C)[C@H](OC[C@@H]3COCCO3)C[C@@H]3CC[C@@H](C)[C@@](O)(O3)C(=O)C(=O)N3CCCC[C@H]3C(=O)O2)C[C@H]1OC	1 to 10 nM
CO[C@@H]1C[C@H](C[C@@H](C)[C@@H]2CC(=O)[C@H](C)/C=C(\C)[C@@H](O)[C@@H](OC)C(=O)[C@H](C)C[C@H](C)/C=C/C=C/C=C(\C)[C@@H](OCC3COCCO3)C[C@@H]3CC[C@@H](C)[C@@](O)(O3)C(=O)C(=O)N3CCCC[C@H]3C(=O)O2)CC[C@H]1OC(=O)NCCN1CCOCC1 (stereo partly shown)	1 to 10 nM
CO[C@@H]1C[C@H](C[C@@H](C)[C@@H]2CC(=O)[C@H](C)/C=C(\C)[C@@H](O)[C@@H](OC)C(=O)[C@H](C)C[C@H](C)/C=C/C=C/C=C(\C)[C@@H](OCCOC3COC3)C[C@@H]3CC[C@@H](C)[C@@](O)(O3)C(=O)C(=O)N3CCCC[C@H]3C(=O)O2)CC[C@H]1OC(=O)NCCN1CCOCC1	< 1 nM
